Test system: DENV-2
Experiment: Antiviral activity, virus yield inhibition assay (plaque assay) against DENV-2 in Vero cells
Assay type: cell-based, dengue virus (DENV-2 strain NGC)
Conditions: Dengue virus, DENV2; pure phytochemicals; concentration reducing DENV-2 yield by 50%, Vero cells, m.o.i. 0.1, 48 h; mean of three ± SD; read-out: EC50
test.readout: EC50

Task item: Entry C=C1C(=O)O[C@@H]2/C=C(\C)CC/C=C(\C)C[C@@H](OC(=O)/C(=C/CO)CO)[C@@H]12 [Compound 2, eupatoriopicrin] : reported EC50 = ?
Reply: > 2 µM

----------
Test system: DENV-2
Assay: Antiviral activity, virus yield inhibition assay (plaque assay) against DENV-2 in Vero cells
Format: cell-based, dengue virus (DENV-2 strain NGC)
Settings: Dengue virus, DENV2, Vero, 48 h
test.readout: EC50

Task item: Item C=C1C(=O)O[C@H]2C[C@]3(C)O[C@@H]3[C@@H]3O[C@@H]3C3=C[C@@H](OC3=O)[C@H]12 [Compound 1, mikanolide] with DENV-2 - EC50?
Reply: > 2 µM

----------
Experiment: Cytotoxicity assay (MTT) on Vero cells
Format: cell-based
Settings: African green monkey, Vero cells (confluent monolayers); pure phytochemicals; Vero cells, 48 h, MTT; mean of three determinations ± SD; read-out: CC50
As shown below, each of these molecules has a reported CC50 at 48 h value.

Task item: I'd like to know its CC50 at 48 h. The molecule in question is C=C1C(=O)O[C@@H]2/C=C(\C)[C@@H](O)C/C=C(\C)C[C@@H](OC(=O)/C(=C/CO)COC(C)=O)[C@@H]12
Reply: 21 µM

Task item: Dear colleague, I am looking for the recorded CC50 at 48 h of the following molecule: C=C1CC[C@H]2C(=C)C(=O)O[C@@H]2[C@H]2C(C)=CC(=O)[C@@H]12
Reply: 21.8 µM

Task item: Item under review: C=C1C(=O)O[C@@H]2[C@H]3C(C)=CC[C@H]3C(=C)C[C@@H](OC(=O)/C(=C/CO)CO)[C@@H]12 . Reported CC50 at 48 h?
Reply: 11.2 µM

Task item: For the molecule COc1cc(-c2oc3cc(O)c(OC)c(O)c3c(=O)c2OC)ccc1O , what CC50 at 48 h is on record?
Reply: > 100 µM

As a next step, examine the molecule that follows.
Task item: Returns the measured CC50 at 48 h for the input molecule. Input: O=C1C[C@@H](c2ccc(O)c(O)c2)Oc2cc(O)cc(O)c21
Reply: > 100 µM

----------
Experiment: Cytotoxicity assay (MTT) on Vero cells
Format: cell-based
Details: African green monkey, Vero cells (confluent monolayers); pure phytochemicals; Vero cells, 48 h, MTT; mean of three determinations ± SD; read-out: CC50
Items are presented alongside their recorded CC50 at 48 h.

Field: example entries. Status: answers known.
Task item: Field request: CC50 at 48 h | item: C=C1C(=O)OC2C1CCC(=C)C1CC3OC3(C)C12 (stereo not shown)
Reply: 23.5 µM

Task item: Form field: reported CC50 at 48 h of COc1ccc(-c2cc(=O)c3c(O)c(OC)c(OC)cc3o2)cc1OC
Reply: 184 µM

Task item: CC50 at 48 h for C=C1C(=O)O[C@@H]2/C=C(\CO)CC/C=C(\COC(C)=O)C[C@H](OC(C)=O)[C@@H]12 [Compound 4, minimolide] ?
Reply: 10.6 µM

Next compound, please.
Task item: Report CC50 at 48 h for COc1cc(-c2cc(=O)c3c(O)c(OC)c(O)cc3o2)ccc1O please.
Reply: > 100 µM

----------
Assay: Cytotoxicity assay (MTT) on Vero cells
Type: cell-based
Conditions: African green monkey
test.readout: CC50 at 48 h

Task item: Find the recorded CC50 at 48 h belonging to COc1c(O)cc2oc(-c3ccc(O)c(O)c3)cc(=O)c2c1O and report it.
Reply: > 100 µM

----------
Experiment: Cytotoxicity assay (MTT) on Vero cells
Type: cell-based
Details: African green monkey
test.readout: CC50 (µM)
Output spec: scalar in µM, unitless text.

Task item: Please report the recorded CC50 for C=C1C(=O)O[C@H]2C[C@]3(C)O[C@@H]3[C@@H]3O[C@@H]3C3=C[C@@H](OC3=O)[C@H]12 [Compound 1, mikanolide] .
Reply: 6.69
